Molecular target: human DP1 receptor (Homo sapiens, UniProt Q13258)
Construct: expressed in transfected cells
Sequence (Q13258 1-359): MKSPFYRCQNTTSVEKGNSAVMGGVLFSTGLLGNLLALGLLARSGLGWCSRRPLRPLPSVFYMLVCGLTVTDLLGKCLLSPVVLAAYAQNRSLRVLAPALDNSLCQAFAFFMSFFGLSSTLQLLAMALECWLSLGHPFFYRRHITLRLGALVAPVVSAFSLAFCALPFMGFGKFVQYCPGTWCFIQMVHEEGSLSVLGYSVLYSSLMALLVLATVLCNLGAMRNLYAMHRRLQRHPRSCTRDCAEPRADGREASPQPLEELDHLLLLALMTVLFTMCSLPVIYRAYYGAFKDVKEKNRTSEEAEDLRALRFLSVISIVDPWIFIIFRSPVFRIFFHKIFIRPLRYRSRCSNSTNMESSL
Experiment: HTRF cAMP assay, recombinant human DP1 receptor in CHO-K1 cells
Assay type: cell-based
Conditions: CHO-K1; intrinsic activity relative to 1 μM PGD2; read-out: hDP1 % IA
Protocol: The new compounds were tested for functional agonist activity in a standard (Cisbio) cAMP assay using recombinant IP or DP1 receptors stably expressed in CHO-K1 cells. […] For development of cAMP accumulation assays, recombinant IP or DP1 receptors were stably expressed in CHO-K1 cells and clonal cell lines derived following standard protocols. […] Plates were then incubated at room temperature for 1 h prior to reading. […]
Item-by-item account of Emax

| Molecule | Observed result |
| --- | --- |
| O=C(O)COC[C@H]1CC[C@H](COC(=O)N(c2ccccc2)c2ccc(Cl)cc2)CC1 [5c] | 52% |
| CC#CCC(C)[C@H](O)/C=C/[C@@H]1[C@H]2C/C(=C/CCCC(=O)O)C[C@H]2C[C@H]1O (stereo partly drawn) [iloprost] | 42% |
| O=C(O)COC[C@H]1CC[C@H](COC(=O)N(c2ccc(F)cc2)c2cccc(F)c2)CC1 [5s] | 57% |

Consider the molecule O=C(O)COC[C@H]1CC[C@H](COC(=O)N(c2ccccc2)c2ccc(F)c(F)c2)CC1 [5o] . State its measured Emax.
45%

Consider the molecule O=C(O)COC[C@H]1CC[C@@H](COC(=O)N(c2ccccc2)c2cccc(F)c2)CC1 [5h] . State its measured Emax.
61%

Consider the molecule COc1ccc(N(C(=O)OC[C@H]2CC[C@H](COCC(=O)O)CC2)c2ccccc2)cc1 [5e] . State its measured Emax.
74%

Consider the molecule Cc1ccc(N(C(=O)OC[C@H]2CC[C@H](COCC(=O)O)CC2)c2ccccc2)cc1 [5k] . State its measured Emax.
53%

Consider the molecule COc1cccc(N(C(=O)OC[C@H]2CC[C@H](COCC(=O)O)CC2)c2ccccc2)c1 [5j] . State its measured Emax.
68%

Consider the molecule O=C(O)COC[C@H]1CC[C@@H](COC(=O)N(c2ccccc2)c2ccc(Cl)cc2)CC1 [5d] . State its measured Emax.
60%

Consider the molecule O=C(O)COC[C@H]1CC[C@H](COC(=O)N(c2ccccc2)c2ccc(F)cc2)CC1 [5l] . State its measured Emax.
55%

Consider the molecule O=C(O)COC[C@H]1CC[C@H](COC(=O)N(c2ccc(Cl)cc2)c2cccc(F)c2)CC1 [5q] . State its measured Emax.
35%

Consider the molecule COc1ccc(N(C(=O)OC[C@H]2CC[C@H](COCC(=O)O)CC2)c2cccc(F)c2)cc1 [5p] . State its measured Emax.
65%

Consider the molecule CC(C)N(CCCCOCC(=O)O)c1cnc(-c2ccccc2)c(-c2ccccc2)n1 [compound 2, MRE269] . State its measured Emax.
80%

Consider the molecule O=C(O)COC[C@H]1CC[C@H](COC(=O)N(c2ccccc2)c2ccccc2)CC1 [5a] . State its measured Emax.
59%

Consider the molecule O=C(O)COC[C@H]1CC[C@H](COC(=O)N(c2ccc(F)cc2)c2ccc(F)cc2)CC1 [5r] . State its measured Emax.
45%
